Target: UniProtKB P10980
Assay: rat M2 positive allosteric modulation, dose response, counter-screen for M4 PAM project, CHO Gqi5 cells, calcium fluorescence (AID 588748)
Conditions: CHO rM2/Gqi5 calcium mobilization, PAM mode, FDSS
MEASURED PARAMETER: pEC50
Interpret pEC50 as the negative base-10 log of the concentration measured in mol/L.

INPUT: Query pEC50 for Cc1nc2sc(C(=O)NC3CC3)c(N)c2c(C)c1Cl
OUTPUT: 6.19

###

Biological target: Muscarinic acetylcholine receptor M2 (Rattus norvegicus) (UniProt P10980)
Sequence (P10980 whole entry, looked up): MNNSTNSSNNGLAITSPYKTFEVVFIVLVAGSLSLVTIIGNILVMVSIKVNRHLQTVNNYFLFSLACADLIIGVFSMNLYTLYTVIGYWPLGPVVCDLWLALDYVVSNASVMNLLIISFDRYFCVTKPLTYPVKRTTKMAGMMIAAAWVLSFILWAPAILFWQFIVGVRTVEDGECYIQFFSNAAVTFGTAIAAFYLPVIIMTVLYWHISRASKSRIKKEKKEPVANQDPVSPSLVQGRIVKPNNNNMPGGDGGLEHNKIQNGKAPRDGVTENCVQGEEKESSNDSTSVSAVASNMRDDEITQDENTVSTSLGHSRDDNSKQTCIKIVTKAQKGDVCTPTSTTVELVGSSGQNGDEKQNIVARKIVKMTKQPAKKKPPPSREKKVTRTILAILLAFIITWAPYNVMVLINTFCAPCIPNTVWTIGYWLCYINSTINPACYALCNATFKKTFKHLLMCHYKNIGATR
Assay: rat M2 positive allosteric modulation, dose response, counter-screen for M4 PAM project, CHO Gqi5 cells, calcium fluorescence (AID 588748)
Details: CHO rM2/Gqi5 calcium mobilization, PAM mode, FDSS; at 30 µM (top of the series)
Activity calls are given as the source filed them.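 Rule for the calls: active = a clear dose-dependent boost of the acetylcholine calcium response in rat M2 cells, with a fitted potency; inactive = the rest.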

SMILES RECORD	percent of ACh max response
Cc1nc2sc(C(=O)NCc3ccncn3)c(N)c2c(C)c1Cl	inactive
Cc1nc2sc(C(=O)NCc3nccs3)c(N)c2c(C)c1Cl	inactive
Cc1nc2sc(C(=O)NCc3cccc(F)c3F)c(N)c2c(C)c1Cl	inactive
Cc1nc2sc(C(=O)NCCc3ccncc3)c(N)c2c(C)c1Cl	inactive
